Data provenance: the supplement of paper PMC5579334

System: HS-Sch-2
test.details: drug sensitivity score (DSS, CellTiter-Glo viability, 72 h) (DSS (dimensionless)); higher = more sensitive; extreme values may be limits of the assay
Kindly supply the reported drug sensitivity score values for the records listed here.
Please respond with just the number, no unit label.

Ask: Query: drug sensitivity score; subject: Cc1c(F)cc(C(=O)NC2CC2)cc1-c1ccc(C(=O)NCC(C)(C)C)cn1 [Losmapimod] (max concentration tested 10000 nM)
Result: 0

Ask: Query: drug sensitivity score; subject: Oc1nc(-c2ccc(C(F)(F)F)cc2)nc2c1CSCC2 [XAV-939] (max concentration tested 10000 nM)
Result: 0

Ask: Query: drug sensitivity score; subject: COc1ccc(COc2cc3oc(=O)c4cc(C(C)O)ccc4c3cc2OC)cc1 (stereo unspecified) [Palomid-529] (max concentration tested 10000 nM)
Result: 0

Ask: Query: drug sensitivity score; subject: CCN(CC)CCN(Cc1ccc(-c2ccc(C(F)(F)F)cc2)cc1)C(=O)Cn1c(SCc2ccc(F)cc2)nc(=O)c2c1CCC2 [Darapladib] (max concentration tested 1000 nM)
Result: 2.38

Ask: Query: drug sensitivity score; subject: CNC(=O)c1cccc(-c2ccc3c(N4CCOC[C@@H]4C)nc(N4CCOC[C@@H]4C)nc3n2)c1 [AZD2014] (max concentration tested 10000 nM)
Result: 11.7

Ask: Query: drug sensitivity score; subject: FC(F)(F)c1ccc(/C=C/c2nc(COc3ccc(CCCCn4ccnn4)cc3)co2)cc1 [Mubritinib] (max concentration tested 1000 nM)
Result: 12.9
